read-out: solute carrier (SLC22A1), SLC22A1 (gene 6580); experiment: LTEA_HepaRG_SLC22A1: Life Technologies and Expression Analysis (LTEA) Assay for solute carrier (SLC22A1) using HepaRG (AID 2283524); details: mRNA level, 48 h; actives raise or lower the signal
The source made the active and inactive calls. How the source made its calls: active means hit-call score of the fitted dose curve at least 0.9, where 1 is the maximum; inactive means score below 0.9.
Classes used: active, inactive

COMPOUND: CC[C@H](NC(=O)c1cc(F)ccc1NS(=O)(=O)c1cccc2cccnc12)c1ccccc1
CAT: active
//
COMPOUND: Cc1occc1C(=O)Nc1ccc(C(=O)N2CCC(F)(F)/C(=C\C(=O)N3CCC(N4CCCCC4)CC3)c3ccccc32)cc1
CAT: active
//
COMPOUND: O=C1O[C@H]([C@@H](O)CO)C(O)=C1O
CAT: inactive
//
COMPOUND: COCC(C)OCC(C)OCC(C)O (centres undefined)
CAT: inactive
//
COMPOUND: c1ccc2ccccc2c1
CAT: inactive
//
COMPOUND: CC/C(=C(/CC)c1ccc(O)cc1)c1ccc(O)cc1
CAT: active
//
COMPOUND: O=C(O)Cc1cc(I)c(Oc2ccc(O)c(I)c2)c(I)c1
CAT: active
//
COMPOUND: CC(C)(c1cc(Br)c(O)c(Br)c1)c1cc(Br)c(O)c(Br)c1
CAT: active
//
COMPOUND: CCCCOC(=O)c1ccc(O)cc1
CAT: inactive
